# targetSystem: MaxL homodimer (Homo sapiens, UniProt P61244 1-160)
# Sequence (P61244 whole entry): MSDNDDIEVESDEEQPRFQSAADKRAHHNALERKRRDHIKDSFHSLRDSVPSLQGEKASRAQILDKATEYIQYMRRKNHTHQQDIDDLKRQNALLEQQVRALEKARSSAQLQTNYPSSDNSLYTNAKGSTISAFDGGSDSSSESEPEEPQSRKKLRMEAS
# assayText: universal protein-binding microarray (PBM); PBS-based mixture, 10 nM His-tagged protein dimer, 2% milk, 200 ng/uL BSA, 50 ng/uL salmon testes DNA, 0.02% TX-100; detection with Alexa 488 anti-His antibody;; high values mean tight binding;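 further: fluorescence intensity normalized to that of the highest-ranked 8-mer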
# conditionSummary: protein: recombinant; tags: C-terminal His-tag (pET21a); chain copies: 2; dsDNA, one strand shown
Whole data set: some 33,000 sequences, median “normalized occupancy” near 0.075, cut for the highest 2% near 0.095. This is one part of a sample in which the highest values are shown more often than they occur.
For each record, write down the corresponding binding signal.
Answers are plain numbers, in normalized occupancy.

Consider the following illustrative entries.
According to the records, this sequence CCTGTGCG displays binding signal of 0.0733

According to the records, this sequence CATGTGCG displays binding signal of 0.181

According to the records, this sequence GATGTTAC displays binding signal of 0.0818

Hey, can you go through the list below and give me binding signal for every item?
1. AATGTGTC
2. ATGCCCAG
3. ACGCACCT
4. CATGTGTA
5. GCGCACTA

Reply |
1. 0.095
2. 0.0765
3. 0.0799
4. 0.131
5. 0.0726

* * *

For each record, write down the corresponding binding signal.
# targetSystem: MaxL homodimer (Homo sapiens, UniProt P61244 1-160)
# assayText: universal protein-binding microarray (PBM); PBS-based mixture, 10 nM His-tagged protein dimer, 2% milk, 200 ng/uL BSA, 50 ng/uL salmon testes DNA, 0.02% TX-100; detection with Alexa 488 anti-His antibody;; high values mean tight binding;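 further: fluorescence intensity normalized to that of the highest-ranked 8-mer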
# conditionSummary: protein: recombinant; tags: C-terminal His-tag (pET21a); chain copies: 2; dsDNA, one strand shown
Over roughly 33,000 sequences, “normalized occupancy” has its median near 0.075; the highest 2% begin near 0.095. What follows is part of a selection rich in the highest values, with near analogues and random picks from the rest.
Answers are plain numbers, in normalized occupancy.

Consider the following illustrative entries.
According to the records, this sequence CCCCATGA displays binding signal of 0.0895

According to the records, this sequence CATTTGAG displays binding signal of 0.0913

Hey, can you go through the list below and give me binding signal for every item?
1. CCACCACG
2. CAATGTGC
3. ACCCATGA

Reply |
[0.0914, 0.0924, 0.0882]

* * *

# targetSystem: MaxL homodimer (Homo sapiens, UniProt P61244 1-160)
# assayText: universal protein-binding microarray (PBM); PBS-based mixture, 10 nM His-tagged protein dimer, 2% milk, 200 ng/uL BSA, 50 ng/uL salmon testes DNA, 0.02% TX-100; detection with Alexa 488 anti-His antibody;; high values mean tight binding;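 further: fluorescence intensity normalized to that of the highest-ranked 8-mer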
# conditionSummary: protein: recombinant; tags: C-terminal His-tag (pET21a); chain copies: 2; dsDNA, one strand shown
The full ranking holds about 33,000 sequences; the median of “normalized occupancy” is about 0.075, and the highest 2% start at about 0.095. This is one part of a sample in which the highest values are shown more often than they occur.
assayEndpoint: binding signal (normalized occupancy)
Give bare numbers, in normalized occupancy.

Consider the following illustrative entries.
According to the records, this sequence CGCATCAG displays binding signal of 0.0761

According to the records, this sequence CACACATG displays binding signal of 0.136

According to the records, this sequence ATGATGTG displays binding signal of 0.088

According to the records, this sequence ATGGATGC displays binding signal of 0.082

Hey, can you go through the list below and give me binding signal for every item?
1. AAACGCGG
2. CCCGTGCC
3. ACAGGTGG
4. ATCACATA

Reply |
1. 0.0761
2. 0.0787
3. 0.0985
4. 0.0859

Hey, can you go through the list below and give me binding signal for every item?
1. CCCATCTA
2. CAGGCACC
3. AGCATGAG
4. CACCATGA
5. AGGCGTGA
6. AACGCGCG
7. AAACGCGT
8. CCCACGAA

Reply |
0.0745
0.0774
0.102
0.0873
0.0829
0.0803
0.08
0.0758

Hey, can you go through the list below and give me binding signal for every item?
1. ATAACACG
2. ATGTTCAG
3. AGGCGTGG
4. AACCATGA
5. ATCCATGC

Reply |
1: 0.0958; 2: 0.0809; 3: 0.098; 4: 0.0836; 5: 0.0942

Hey, can you go through the list below and give me binding signal for every item?
1. GGAGTGCA
2. GTAGTTGA
3. ACACGCGA
4. ACAACATA

Reply |
1: 0.0787; 2: 0.0738; 3: 0.116; 4: 0.0833

Hey, can you go through the list below and give me binding signal for every item?
1. CACGCGCG
2. CACCATGG
3. GGAGAGAC
4. CCATTCAA

Reply |
0.133
0.0885
0.0742
0.0785

Hey, can you go through the list below and give me binding signal for every item?
1. AACCATGT
2. ACACGCTC
3. AGGCGTGC
4. ACACGCGT
5. ACCGTGCC
6. GCACGCCA
7. ACAACACG
8. GTAACACA

Reply |
[0.0862, 0.0924, 0.0963, 0.13, 0.0756, 0.0859, 0.0955, 0.0828]

Hey, can you go through the list below and give me binding signal for every item?
1. AAACGCGA
2. AGGCGCGC

Reply |
0.0771
0.0762

Hey, can you go through the list below and give me binding signal for every item?
1. ATCGTGCG
2. AGCCTCTC
3. ACACGCGC
4. ATCGTGCC

Reply |
[0.0851, 0.0729, 0.112, 0.08]

* * *

# targetSystem: MaxL homodimer (Homo sapiens, UniProt P61244 1-160)
# assayText: universal protein-binding microarray (PBM); PBS-based mixture, 10 nM His-tagged protein dimer, 2% milk, 200 ng/uL BSA, 50 ng/uL salmon testes DNA, 0.02% TX-100; detection with Alexa 488 anti-His antibody;; high values mean tight binding;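 further: fluorescence intensity normalized to that of the highest-ranked 8-mer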
# conditionSummary: protein: recombinant; tags: C-terminal His-tag (pET21a); chain copies: 2; dsDNA, one strand shown
Over roughly 33,000 sequences, “normalized occupancy” has its median near 0.075; the highest 2% begin near 0.095. The list comes from a sample in which the highest values are over-represented; it also holds close analogues and randomly drawn sequences.
For each record, write down the corresponding binding signal.
One number for each entry, in normalized occupancy.

Consider the following illustrative entries.
According to the records, this sequence AGTGCTGC displays binding signal of 0.072

According to the records, this sequence CGGTAGCA displays binding signal of 0.0827

Continuing:
According to the records, this sequence AATTCCGA displays binding signal of 0.0729

* * *

For each record, write down the corresponding binding signal.
# targetSystem: MaxL homodimer (Homo sapiens, UniProt P61244 1-160)
# assayText: universal protein-binding microarray (PBM); PBS-based mixture, 10 nM His-tagged protein dimer, 2% milk, 200 ng/uL BSA, 50 ng/uL salmon testes DNA, 0.02% TX-100; detection with Alexa 488 anti-His antibody;; high values mean tight binding;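 further: fluorescence intensity normalized to that of the highest-ranked 8-mer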
# conditionSummary: protein: recombinant; tags: C-terminal His-tag (pET21a); chain copies: 2; dsDNA, one strand shown
Over roughly 33,000 sequences, “normalized occupancy” has its median near 0.075; the highest 2% begin near 0.095. This is one part of a sample in which the highest values are shown more often than they occur.
Answers are plain numbers, in normalized occupancy.

Consider the following illustrative entries.
According to the records, this sequence CATAAATC displays binding signal of 0.0857

According to the records, this sequence CAACATGA displays binding signal of 0.0936

According to the records, this sequence GAAAAGAA displays binding signal of 0.0746

Hey, can you go through the list below and give me binding signal for every item?
1. CTTGATGA
2. ATTTACGC

Reply |
1. 0.0755
2. 0.0786

Hey, can you go through the list below and give me binding signal for every item?
1. CAGTGCTC
2. CTCAGTAC
3. AGCTACAA

Reply |
0.0745
0.0743
0.0722

Hey, can you go through the list below and give me binding signal for every item?
1. ACGCCTGC
2. CAAGAGGG
3. CATGACCG

Reply |
1: 0.0743; 2: 0.0744; 3: 0.0795

Hey, can you go through the list below and give me binding signal for every item?
1. CGACCTCG
2. TCAGACGA

Reply |
1. 0.0723
2. 0.0739

* * *

# targetSystem: MaxL homodimer (Homo sapiens, UniProt P61244 1-160)
# assayText: universal protein-binding microarray (PBM); PBS-based mixture, 10 nM His-tagged protein dimer, 2% milk, 200 ng/uL BSA, 50 ng/uL salmon testes DNA, 0.02% TX-100; detection with Alexa 488 anti-His antibody;; high values mean tight binding;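 further: fluorescence intensity normalized to that of the highest-ranked 8-mer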
# conditionSummary: protein: recombinant; tags: C-terminal His-tag (pET21a); chain copies: 2; dsDNA, one strand shown
Whole data set: some 33,000 sequences, median “normalized occupancy” near 0.075, cut for the highest 2% near 0.095. The sample as a whole holds a higher share of the highest values than the screen did.
For each record, write down the corresponding binding signal.
Answers are plain numbers, in normalized occupancy.

Consider the following illustrative entries.
According to the records, this sequence ATGCATCC displays binding signal of 0.0863

According to the records, this sequence CATGCCCC displays binding signal of 0.0965

According to the records, this sequence ATTGAGAG displays binding signal of 0.0765

Hey, can you go through the list below and give me binding signal for every item?
1. ACAACCGA
2. CTATAGTA
3. CAGGCATC
4. CCGTCCTC

Reply |
1. 0.0733
2. 0.0737
3. 0.0725
4. 0.0798

Hey, can you go through the list below and give me binding signal for every item?
1. AATTACGG
2. ATGCGCGA
3. ATTAAAGA
4. CATTTTAC
5. CCGTTTGA
6. ACTCACTC

Reply |
0.0744
0.0781
0.0773
0.0853
0.0729
0.0763

Hey, can you go through the list below and give me binding signal for every item?
1. GTGCATGA
2. ATGCATGC
3. GTGCATAA
4. GCGACAGC
5. CTGCATTC

Reply |
1: 0.0961; 2: 0.126; 3: 0.0861; 4: 0.0756; 5: 0.0735

Hey, can you go through the list below and give me binding signal for every item?
1. ACTTTAAG
2. ATGCATTC
3. CCCTCGAA
4. CTGCATGA

Reply |
1. 0.0722
2. 0.0908
3. 0.0795
4. 0.083
